# credit: the supplement of paper PMC6555819

Reported PBM binding z-score values follow for various sequences
Test system: PPARg DBDmut IVT, anti-PPARg (DBD mutation: PPARg1 K132A/R137A, NR concentration 270 nM)
TEST_DESCRIPTION: PBM binding z-score (relative to random genomic background probes); higher = stronger binding; sequences stand for … in GC…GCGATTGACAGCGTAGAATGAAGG

# MACROMOLECULE_SEQUENCE, PBM binding z-score
measured = [
    ("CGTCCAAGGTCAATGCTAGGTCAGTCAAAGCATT", -0.362),
    ("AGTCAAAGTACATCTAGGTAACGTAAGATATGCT", 1.11),
    ("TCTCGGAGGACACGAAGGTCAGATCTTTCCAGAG", -1.02),
    ("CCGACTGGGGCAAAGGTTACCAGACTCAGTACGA", -1.09),
    ("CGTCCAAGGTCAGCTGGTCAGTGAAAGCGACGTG", -0.832),
    ("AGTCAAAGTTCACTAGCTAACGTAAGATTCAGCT", 0.426),
    ("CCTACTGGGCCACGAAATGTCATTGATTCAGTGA", -0.527),
    ("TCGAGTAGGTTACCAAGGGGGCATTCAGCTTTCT", 5.1),
    ("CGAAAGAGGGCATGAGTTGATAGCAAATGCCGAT", -0.376),
    ("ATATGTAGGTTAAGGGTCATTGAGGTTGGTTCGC", 2.08),
    ("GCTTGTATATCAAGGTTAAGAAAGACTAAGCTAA", 0.533),
    ("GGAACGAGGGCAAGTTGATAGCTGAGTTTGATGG", -0.342),
]
